Values from patent US8791061B2

Molecular target: DPPIV (Mus musculus, UniProt P28843)
Construct: The plasma was transferred to a 96-well assay plate for the DPPIV assay; from tissue; host or cells: pooled heparinized whole blood of ICR mice; plasma isolated after incubation
Sequence (P28843 37-760 limits assumed): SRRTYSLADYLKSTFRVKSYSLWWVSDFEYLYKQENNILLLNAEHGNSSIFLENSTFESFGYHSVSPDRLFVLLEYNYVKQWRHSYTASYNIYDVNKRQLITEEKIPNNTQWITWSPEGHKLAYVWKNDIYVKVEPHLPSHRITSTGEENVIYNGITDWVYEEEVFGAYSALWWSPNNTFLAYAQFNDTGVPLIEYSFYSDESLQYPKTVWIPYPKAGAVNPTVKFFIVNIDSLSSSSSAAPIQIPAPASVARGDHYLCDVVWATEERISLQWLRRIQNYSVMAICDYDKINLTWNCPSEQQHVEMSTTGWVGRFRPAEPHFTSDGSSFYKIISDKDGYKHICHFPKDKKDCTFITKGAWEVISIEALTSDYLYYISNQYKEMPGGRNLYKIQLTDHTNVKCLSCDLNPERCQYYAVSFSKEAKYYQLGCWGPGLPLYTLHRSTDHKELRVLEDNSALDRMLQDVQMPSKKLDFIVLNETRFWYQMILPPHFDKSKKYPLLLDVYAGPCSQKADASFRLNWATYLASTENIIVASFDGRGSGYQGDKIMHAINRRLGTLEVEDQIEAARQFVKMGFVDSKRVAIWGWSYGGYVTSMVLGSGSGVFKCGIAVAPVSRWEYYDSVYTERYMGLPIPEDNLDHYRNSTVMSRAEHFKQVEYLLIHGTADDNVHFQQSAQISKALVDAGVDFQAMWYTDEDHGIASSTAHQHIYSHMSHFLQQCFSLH
Experiment: Plasma DPPIV activity assay with mouse blood
Assay type: biochemical
Conditions: peptide 0.82 mM in mouse blood, 2 h at 37° C.; relative to saline control set to 100%
Where no end group is shown, it is not given here. [ ]: non-standard residue; d: D form. Orn = NCCC[C@H](N)C(=O)O
readoutKind: % DPPIV Activity (Saline) (%)

64 (RIVPPA-NH2) [compound 64] ... 74
86 (Lys-Val-Pro-NH2) [compound 86] ... 49
84 ([Orn]-Val-Pro-NH2; N-terminus assumed; SMILES CC(C)[C@H](NC(=O)[C@@H](N)CCCN)C(=O)N1CCC[C@H]1C(N)=O) [compound 84] ... 79
19 (GGIVPA-NH2) [compound 19] ... 70
89 (Lys-His-Pro-NH2) [compound 89] ... 72
